assay: Effective permeability of compound at pH 7.4 at 20 uM incubated for 18 hrs by LCMS analysis; format: ADME; settings: not told, read-out: Peff
readout-label: Papp at 18 h, 20 µM (×10⁻⁶ cm/s)
Numbers only, in ×10⁻⁶ cm/s.

Lab book: Papp at 18 h, 20 µM of O=C1CO[C@H]2CCN(C(=O)N3CCC(Cc4ccc(C(F)(F)F)cc4)CC3)C[C@H]2N1 noted as 12.8

---

assay: Oral bioavailability in C57BL/6 mouse at 5.1 mg/kg measured upto 7 hrs by LC-MS/MS analysis; settings: in vivo
readout-label: bioavailability (%)
Numbers only, in %.

get_value(item= O=C1CO[C@H]2CCN(C(=O)N3CCC(Cc4ccc(C(F)(F)F)cc4)CC3)C[C@H]2N1 (racemic) , readout=bioavailability) returns 127
